SUBJECT OF TEST: Amylin 3(a) receptor (human calcitonin receptor (CTa) with RAMP-3) on BHK570 cells (human, UniProt P30988 25-474)
Sequence (P30988 25-474): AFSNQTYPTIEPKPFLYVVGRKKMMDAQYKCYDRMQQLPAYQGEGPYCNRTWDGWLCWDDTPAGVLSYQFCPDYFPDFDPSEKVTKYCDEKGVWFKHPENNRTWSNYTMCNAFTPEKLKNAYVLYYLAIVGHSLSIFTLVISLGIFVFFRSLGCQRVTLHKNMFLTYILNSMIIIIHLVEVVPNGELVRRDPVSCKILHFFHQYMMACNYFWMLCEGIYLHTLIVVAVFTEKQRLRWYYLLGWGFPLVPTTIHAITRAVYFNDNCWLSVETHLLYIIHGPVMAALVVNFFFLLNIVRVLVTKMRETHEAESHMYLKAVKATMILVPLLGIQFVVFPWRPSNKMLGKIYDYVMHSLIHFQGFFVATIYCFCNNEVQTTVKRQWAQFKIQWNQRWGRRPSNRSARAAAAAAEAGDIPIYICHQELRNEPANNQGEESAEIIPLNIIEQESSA
METHOD: cell-based or functional assay
Positions of bridges follow the written chain, without caps; N, C: chain ends. Groups on a side chain read outwards from the residue. No end group written: not given here. *: point of attachment. C20 diacid = O=C(O)CCCCCCCCCCCCCCCCCCC(=O)*; C18 diacid = O=C(O)CCCCCCCCCCCCCCCCC(=O)*; AEEA = NCCOCCOCC(=O)O
ASSAY ENDPOINT: Potency luciferase assay (nM)
Numeric answer only, unit nM assumed.

Answered examples (3):
BINDER	UNIT DESCRIPTOR	Potency luciferase assay
KCK(C20 diacid)TATCATQRLANFLVHSSNNFGPILPPTNVGSNTY-NH2 (disulfide 2-7 (inferred)) [N-epsilon3-(19-carboxynonadecanoyl)-[Lys3]-pramlintide (1-37)]	nM	0.05
KCNTATCATQRLANFLVRSSNNFGK([AEEA-AEEA-C18 diacid])ILPPTNVGSNTY-NH2 (disulfide 2-7 (inferred))	nM	0.04
KCK(17‑carboxyheptanoyl)TATCATQRLANFLVRSSNNFGPILPPTNVGSNTY-NH2 (disulfide 2-7 (inferred)) [N-epsilon3-(17-carboxyheptanoyl)-[Lys3,Arg18]-pramlintide (1-37)]	nM	0.06

Turning now to a further record.
Entry KCK([AEEA-4‑(16-1H-tetrazol-5-yl-hexadecanoylsulfamoyl)butyryl])TATCATQRLANFLVHSSNNFGPILPPTNVGSNTY-NH2 (disulfide 2-7 (inferred)) : reported Potency luciferase assay = ?
0.1
